// provenance: PubChem BioAssay AID1963968

test system: 945468-187-T-J3-PDC spheroids with HUVEC/MSC, viability; experiment: Anticancer human tumor 945468-187-T-J3-PDC patient-derived rectal carcinoma cell line growth inhibition [PI3K]; conditions: curve of first compound; second compound 1 µM
MEASUREMENT LABEL: pIC50
pIC50 here: minus log base 10 of the concentration, concentration in moles per litre.

// below: answered molecules
CC(C)n1nc(-c2ccc3oc(N)nc3c2)c2c(N)ncnc21 + CC(Nc1ccc2c(c1)OCCn1cc(N3C(=O)OCC3C(F)F)nc1-2)C(N)=O    8.28
CC(=O)c1c(C)c2cnc(Nc3ccc(N4CCNCC4)cn3)nc2n(C2CCCC2)c1=O + CC(Nc1ccc2c(c1)OCCn1cc(N3C(=O)OCC3C(F)F)nc1-2)C(N)=O    7.11
Cn1ncc(Cl)c1-c1cc(C(=O)NC(CN)Cc2cccc(F)c2)sc1Cl (stereo unspecified) + CC(Nc1ncnc2nc[nH]c12)c1cc2cccc(Cl)c2c(=O)n1-c1ccccc1    5.87
CCN1CCN(Cc2ccc(Nc3ncc(F)c(-c4cc(F)c5nc(C)n(C(C)C)c5c4)n3)nc2)CC1 + Cc1nc(NC(=O)N2CCCC2C(N)=O)sc1-c1ccnc(C(C)(C)C(F)(F)F)c1    6.13

Now look at this one.
Record Cn1ncc(Cl)c1-c1cc(C(=O)NC(CN)Cc2cccc(F)c2)sc1Cl (stereo unspecified) + Cc1nc(NC(=O)N2CCCC2C(N)=O)sc1-c1ccnc(C(C)(C)C(F)(F)F)c1 . Reported pIC50: 5.84

====

We begin with a simple list: items and their reported viability, T/C.
System: 945468-187-T-J3-PDC spheroids with HUVEC/MSC, viability
Assay: Anticancer human tumor 945468-187-T-J3-PDC cell line growth inhibition [PI3K];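 note: spheroids exposed to agents for 7 days before viability read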;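 for viability, T/C: 100% = DMSO vehicle control viability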
Details: second compound 0.316 µM; first compound 0.00949 µM; stronger effect = lower value
Source text: Combinatorial screen of targeted agents with the PI3K inhibitors inavolisib, alpelisib, duvelisib, and copanlisib in multi-cell type tumor spheroids A high-throughput screen of multi-cell type tumor spheroids was designed to identify active combinations of targeted small molecules and PI3K pathway inhibitors. […] Compounds. […] If the clinical Cmax for an agent had not been determined, the highest concentration tested was 10 microM. […]
Number in %, nothing else.

// below: answered compounds
Cn1cnc2c(F)c(Nc3ccc(Br)cc3Cl)c(C(=O)NOCCO)cc21 + CC(Nc1ccc2c(c1)OCCn1cc(N3C(=O)OCC3C(F)F)nc1-2)C(N)=O    85.2
Cn1cnc2c(F)c(Nc3ccc(Br)cc3Cl)c(C(=O)NOCCO)cc21 + Cc1nc(NC(=O)N2CCCC2C(N)=O)sc1-c1ccnc(C(C)(C)C(F)(F)F)c1    114
Cn1cnc2c(F)c(Nc3ccc(Br)cc3Cl)c(C(=O)NOCCO)cc21 + CC(Nc1ncnc2nc[nH]c12)c1cc2cccc(Cl)c2c(=O)n1-c1ccccc1    100

Now look at this one.
Record Cn1cnc2c(F)c(Nc3ccc(Br)cc3Cl)c(C(=O)NOCCO)cc21 + COc1c(OCCCN2CCOCC2)ccc2c3n(c(=NC(=O)c4cnc(N)nc4)nc12)CCN3 . Reported viability, T/C: 17.5

====

We begin with a simple list: items and their reported viability, T/C.
test system: 945468-187-T-J3-PDC spheroids with HUVEC/MSC, viability; assay: Anticancer human tumor 945468-187-T-J3-PDC cell line growth inhibition [PI3K]; conditions: second compound 0.0316 µM; first compound 1 µM; stronger effect = lower value;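 note: spheroids exposed to agents for 7 days before viability read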;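 for viability, T/C: 100% = DMSO vehicle control viability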
Number in %, nothing else.

Cn1nccc1Nc1nccc(-c2ccn(C(CO)c3ccc(Cl)c(F)c3)c(=O)c2)n1 (stereo not given) + CC(Nc1ncnc2nc[nH]c12)c1cc2cccc(Cl)c2c(=O)n1-c1ccccc1    107
CC1(C)CCC(CN2CCN(c3ccc(C(=O)NS(=O)(=O)c4ccc(NCC5CCOCC5)c([N+](=O)[O-])c4)c(Oc4cnc5[nH]ccc5c4)c3)CC2)=C(c2ccc(Cl)cc2)C1 + Cc1nc(NC(=O)N2CCCC2C(N)=O)sc1-c1ccnc(C(C)(C)C(F)(F)F)c1    120
Cn1ncc(Cl)c1-c1cc(C(=O)NC(CN)Cc2cccc(F)c2)sc1Cl (stereo not given) + CC(Nc1ccc2c(c1)OCCn1cc(N3C(=O)OCC3C(F)F)nc1-2)C(N)=O    62

Record CC(Cn1ccc(-c2ccc(C#N)c(Cl)c2)n1)NC(=O)c1cc(C(C)O)[nH]n1 (stereo not given) + COc1c(OCCCN2CCOCC2)ccc2c3n(c(=NC(=O)c4cnc(N)nc4)nc12)CCN3 . Reported viability, T/C: 95.7

Record CC1(C)CCC(CN2CCN(c3ccc(C(=O)NS(=O)(=O)c4ccc(NCC5CCOCC5)c([N+](=O)[O-])c4)c(Oc4cnc5[nH]ccc5c4)c3)CC2)=C(c2ccc(Cl)cc2)C1 + COc1c(OCCCN2CCOCC2)ccc2c3n(c(=NC(=O)c4cnc(N)nc4)nc12)CCN3 . Reported viability, T/C: 98.1

====

We begin with a simple list: items and their reported viability, T/C.
tested on: 945468-187-T-J3-PDC spheroids with HUVEC/MSC, viability; test: Anticancer human tumor 945468-187-T-J3-PDC cell line growth inhibition [PI3K]; conditions: second compound 10 µM; first compound 1 µM; stronger effect = lower value;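 note: spheroids exposed to agents for 7 days before viability read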;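 for viability, T/C: 100% = DMSO vehicle control viability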
Number in %, nothing else.

// below: answered compounds
CC1(C)CCC(Nc2ncc(C(F)(F)F)c(-c3c[nH]c4c(P(C)(C)=O)c(C#N)ccc34)n2)CN1 (stereo unspecified) + CC(Nc1ncnc2nc[nH]c12)c1cc2cccc(Cl)c2c(=O)n1-c1ccccc1    58.9
CCN1CCN(Cc2ccc(Nc3ncc(F)c(-c4cc(F)c5nc(C)n(C(C)C)c5c4)n3)nc2)CC1 + Cc1nc(NC(=O)N2CCCC2C(N)=O)sc1-c1ccnc(C(C)(C)C(F)(F)F)c1    23.7
Cn1nccc1Nc1nccc(-c2ccn(C(CO)c3ccc(Cl)c(F)c3)c(=O)c2)n1 (stereo unspecified) + CC(Nc1ncnc2nc[nH]c12)c1cc2cccc(Cl)c2c(=O)n1-c1ccccc1    123
CC1(C)CCC(CN2CCN(c3ccc(C(=O)NS(=O)(=O)c4ccc(NCC5CCOCC5)c([N+](=O)[O-])c4)c(Oc4cnc5[nH]ccc5c4)c3)CC2)=C(c2ccc(Cl)cc2)C1 + Cc1nc(NC(=O)N2CCCC2C(N)=O)sc1-c1ccnc(C(C)(C)C(F)(F)F)c1    68.4
C=CC(=O)N1CCN(c2nc(=O)n(-c3c(C)ccnc3C(C)C)c3nc(-c4c(O)cccc4F)c(F)cc23)C(C)C1 (stereo unspecified) + CC(Nc1ncnc2nc[nH]c12)c1cc2cccc(Cl)c2c(=O)n1-c1ccccc1    97.6
C#Cc1c(F)ccc2cc(O)cc(-c3ncc4c(N5CC6CCC(C5)N6)nc(OCC56CCCN5CC(F)C6)nc4c3F)c12 (stereo unspecified) + Cc1nc(NC(=O)N2CCCC2C(N)=O)sc1-c1ccnc(C(C)(C)C(F)(F)F)c1    47.8

For the compound C=CC(=O)N1CCN(c2nc(=O)n(-c3c(C)ccnc3C(C)C)c3nc(-c4c(O)cccc4F)c(F)cc23)C(C)C1 (stereo unspecified) + Cc1nc(NC(=O)N2CCCC2C(N)=O)sc1-c1ccnc(C(C)(C)C(F)(F)F)c1 , the measured viability, T/C on 945468-187-T-J3-PDC spheroids with HUVEC/MSC, viability was 67.5

For the compound CC(C)NCC(C(=O)N1CCN(c2ncnc3c2C(C)CC3O)CC1)c1ccc(Cl)cc1 (stereo unspecified) + Cc1nc(NC(=O)N2CCCC2C(N)=O)sc1-c1ccnc(C(C)(C)C(F)(F)F)c1 , the measured viability, T/C on 945468-187-T-J3-PDC spheroids with HUVEC/MSC, viability was 45

For the compound CC1(C)CCC(CN2CCN(c3ccc(C(=O)NS(=O)(=O)c4ccc(NCC5CCOCC5)c([N+](=O)[O-])c4)c(Oc4cnc5[nH]ccc5c4)c3)CC2)=C(c2ccc(Cl)cc2)C1 + CC(Nc1ncnc2nc[nH]c12)c1cc2cccc(Cl)c2c(=O)n1-c1ccccc1 , the measured viability, T/C on 945468-187-T-J3-PDC spheroids with HUVEC/MSC, viability was 103

For the compound Cn1nccc1Nc1nccc(-c2ccn(C(CO)c3ccc(Cl)c(F)c3)c(=O)c2)n1 (stereo unspecified) + Cc1nc(NC(=O)N2CCCC2C(N)=O)sc1-c1ccnc(C(C)(C)C(F)(F)F)c1 , the measured viability, T/C on 945468-187-T-J3-PDC spheroids with HUVEC/MSC, viability was 54.8

For the compound CC1(C)CCC(Nc2ncc(C(F)(F)F)c(-c3c[nH]c4c(P(C)(C)=O)c(C#N)ccc34)n2)CN1 (stereo unspecified) + Cc1nc(NC(=O)N2CCCC2C(N)=O)sc1-c1ccnc(C(C)(C)C(F)(F)F)c1 , the measured viability, T/C on 945468-187-T-J3-PDC spheroids with HUVEC/MSC, viability was 44.5

====

tested on: 945468-187-T-J3-PDC spheroids with HUVEC/MSC, viability; test: Anticancer human tumor 945468-187-T-J3-PDC cell line growth inhibition [PI3K]; details: compound 10 µM; stronger effect = lower value;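 note: spheroids exposed to agents for 7 days before viability read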;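 for viability, T/C: 100% = DMSO vehicle control viability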
MEASUREMENT LABEL: viability, T/C

// below: answered compounds
Cn1ncc(Cl)c1-c1cc(C(=O)NC(CN)Cc2cccc(F)c2)sc1Cl (centres undefined)    50.4% [middle of 4 runs]
Cc1nc(NC(=O)N2CCCC2C(N)=O)sc1-c1ccnc(C(C)(C)C(F)(F)F)c1 (centres undefined)    62.1% [middle of 8 runs]
CC1(C)CCC(Nc2ncc(C(F)(F)F)c(-c3c[nH]c4c(P(C)(C)=O)c(C#N)ccc34)n2)CN1 (centres undefined)    12.7% [middle of 4 runs]

Record CC(Nc1ncnc2nc[nH]c12)c1cc2cccc(Cl)c2c(=O)n1-c1ccccc1 (centres undefined) . Reported viability, T/C: 98.8% [middle of 8 runs]
